- systemUnderTest: HDAC1 (Homo sapiens, UniProt Q13547)
- Construct: purchased BPS Bioscience
- Sequence (Q13547 whole entry): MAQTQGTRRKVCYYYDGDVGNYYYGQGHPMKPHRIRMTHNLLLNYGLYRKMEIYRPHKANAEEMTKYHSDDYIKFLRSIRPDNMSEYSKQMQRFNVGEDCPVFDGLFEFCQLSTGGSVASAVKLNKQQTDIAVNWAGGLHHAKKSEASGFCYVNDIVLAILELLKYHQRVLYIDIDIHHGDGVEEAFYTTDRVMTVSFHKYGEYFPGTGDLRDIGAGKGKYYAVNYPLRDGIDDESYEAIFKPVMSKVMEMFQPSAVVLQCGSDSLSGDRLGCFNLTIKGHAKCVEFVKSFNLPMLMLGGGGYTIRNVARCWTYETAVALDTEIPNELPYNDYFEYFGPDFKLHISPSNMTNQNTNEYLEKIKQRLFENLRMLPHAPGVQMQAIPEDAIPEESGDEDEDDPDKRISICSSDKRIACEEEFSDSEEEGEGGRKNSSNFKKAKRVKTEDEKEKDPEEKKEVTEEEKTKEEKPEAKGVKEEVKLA
- assayName: HDAC inhibitory activity, fluorescence-coupled acetylated peptide substrate assay (Lys-Ac-AMC)
- Type: biochemical
- conditionDescription: Table 2
pIC50: −log10 of the molar value.
propertyMeasured: pIC50

The cases that follow already have their pIC50 on record.
| chemSmiles | propertyMeasured | observedResult |
| --- | --- | --- |
| Cc1nc(N(C)c2cccc(OCCCCC(=O)NO)c2)c2ccccc2n1 | pIC50 | 6.00 to 7.00 |
| Cc1nc(N(C)c2ccc(OCCCCCC(=O)NO)cc2)c2ccccc2n1 | pIC50 | 6.00 to 7.00 |
| CCCCCN(c1ccc(OC)c(OCCCC(=O)NO)c1)c1nc(C)nc2ccccc12 | pIC50 | 7.00 to 8.00 |
| CN(c1ccc(OCCCCCC(=O)NO)cc1)c1ncnc2ccccc12 | pIC50 | 6.00 to 7.00 |
| Cc1nc(N(C)c2ccc(OCC(=O)NO)cc2)c2ccccc2n1 | pIC50 | 6.00 to 7.00 |

Data request: Name the recorded pIC50 of the molecule listed here: COc1ccc(N(C)c2nc(C)nc3ccccc23)cc1OCCCCCC(=O)NO
Data returned: 6.00 to 7.00

Data request: Name the recorded pIC50 of the molecule listed here: COc1ccc(N(C)c2nc(C)nc3ccccc23)cc1OCC(=O)NO
Data returned: < 6.00

Data request: Name the recorded pIC50 of the molecule listed here: CN(c1ccc(OCCCCC(=O)NO)cc1)c1ncnc2ccccc12
Data returned: 6.00 to 7.00

Data request: Name the recorded pIC50 of the molecule listed here: Cc1nc(N(C)c2ccc(OCCCC(=O)NO)cc2)c2ccccc2n1
Data returned: 7.00 to 8.00

Data request: Name the recorded pIC50 of the molecule listed here: Cc1nc(N(C)c2ccc(Oc3ccc(C(=O)NO)cc3)cc2)c2ccccc2n1
Data returned: 6.00 to 7.00

----------
- Tested on: B-cell lymphoma Ramos
- assayName: Cell proliferative activity (MTT / cck-8)
- Format: cell-based
- conditionDescription: Homo sapiens, read-out: Half-Inhibitory Concentration IC50 Ramos
propertyMeasured: IC50 (nM)
State just the number; it will be interpreted in nM.

Data request: Name the recorded IC50 of the compound listed here: COc1ccc(N(C)c2nc(C)nc3ccccc23)cc1OCCCC(=O)NO
Data returned: 71

----------
- System: Ovarian cancer A2780s
- assayName: Cell proliferative activity (MTT / cck-8)
- Type: cell-based
- conditionDescription: Homo sapiens, read-out: Half-Inhibitory Concentration IC50 A2780s
propertyMeasured: pIC50
Lab note: report pIC50 as minus log10 of the concentration in molar units, number only.

Data request: Name the recorded pIC50 of the molecule listed here: COc1ccc(N(C)c2nc(C)nc3ccccc23)cc1OCCCC(=O)NO [III-2]
Data returned: 7.34

----------
- Tested on: Human lung cancer cell H460
- assayName: Cell proliferative activity (MTT / cck-8)
- Type: cell-based
- conditionDescription: NCI-H460, Lung cancer, Table 5, read-out: Half-Inhibitory Concentration IC50 H460
propertyMeasured: IC50 (µM)
State just the number; it will be interpreted in µM.

Data request: Name the recorded IC50 of the compound listed here: COc1ccc(N(C)c2nc(C)nc3ccccc23)cc1OCCCC(=O)NO
Data returned: 0.055

----------
- systemUnderTest: HDAC8 (Homo sapiens, UniProt Q9BY41)
- Sequence (Q9BY41 whole entry): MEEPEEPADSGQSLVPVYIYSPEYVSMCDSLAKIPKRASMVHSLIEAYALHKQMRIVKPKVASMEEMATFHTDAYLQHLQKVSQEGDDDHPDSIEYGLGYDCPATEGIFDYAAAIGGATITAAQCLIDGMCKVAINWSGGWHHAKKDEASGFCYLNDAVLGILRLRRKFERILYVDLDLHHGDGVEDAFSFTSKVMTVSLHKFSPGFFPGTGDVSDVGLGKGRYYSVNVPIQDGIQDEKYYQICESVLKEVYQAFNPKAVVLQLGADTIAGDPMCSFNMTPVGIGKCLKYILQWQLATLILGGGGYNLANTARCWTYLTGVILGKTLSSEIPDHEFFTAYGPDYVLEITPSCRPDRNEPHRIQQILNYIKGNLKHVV
- assayName: HDAC inhibitory activity, fluorescence-coupled acetylated peptide substrate assay
- conditionDescription: IC50 HDAC8, Table 3
pIC50: −log10 of the molar value.
propertyMeasured: pIC50

The cases that follow already have their pIC50 on record.
| compound | pIC50 |
| --- | --- |
| CN(c1ccc(OCc2ccc(C(=O)NO)cc2)cc1)c1ncnc2ccccc12 [II-16] | 5.78 |
| Cc1nc(N(C)c2ccc(OCc3ccc(C(=O)NO)cc3)cc2)c2ccccc2n1 [II-5] | 5.62 |
| Cc1nc(N(C)c2ccc(Oc3ccc(C(=O)NO)cc3)cc2)c2ccccc2n1 [II-6] | 5.31 |

a: Cc1nc(N(C)c2ccc(Oc3ccc(C(=O)NO)cn3)cc2)c2ccccc2n1 [II-7]
b: CN(c1ccc(Oc2ccc(C(=O)NO)cn2)cc1)c1ncnc2ccccc12 [II-18]
Data request: Param metric = pIC50; output whichever of a , b has the minimum value. Refer to your chosen item by its label in the answer.
Data returned: b
(b: 5.54, a: 5.90)

----------
- systemUnderTest: HDAC3 (Homo sapiens, UniProt O15379)
- Sequence (O15379 whole entry): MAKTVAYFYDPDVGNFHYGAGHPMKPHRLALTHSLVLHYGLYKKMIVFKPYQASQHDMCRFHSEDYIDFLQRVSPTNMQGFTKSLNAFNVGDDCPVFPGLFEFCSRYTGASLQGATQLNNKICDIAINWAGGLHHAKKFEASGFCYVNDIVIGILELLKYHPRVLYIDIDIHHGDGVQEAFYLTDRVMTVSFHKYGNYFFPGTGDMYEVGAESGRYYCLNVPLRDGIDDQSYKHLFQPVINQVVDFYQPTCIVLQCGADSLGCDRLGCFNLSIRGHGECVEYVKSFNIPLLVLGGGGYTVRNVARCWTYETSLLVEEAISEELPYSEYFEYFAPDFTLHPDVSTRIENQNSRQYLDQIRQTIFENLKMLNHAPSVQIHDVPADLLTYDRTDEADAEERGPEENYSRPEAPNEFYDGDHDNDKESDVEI
- Sequence (Q9Y618 395-489 partner limits assumed): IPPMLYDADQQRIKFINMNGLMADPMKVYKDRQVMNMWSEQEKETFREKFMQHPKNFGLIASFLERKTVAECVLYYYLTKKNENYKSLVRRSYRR
propertyMeasured: pIC50
Lab note: report pIC50 as minus log10 of the concentration in molar units, number only.

Data request: Under HDAC3 (Homo sapiens, UniProt O15379), report pIC50 for COc1ccc(N(C)c2nc(C)nc3ccccc23)cc1OCCCC(=O)NO
Data returned: 6.36

----------
- System: Leukemia K562
- assayName: Cell proliferative activity (MTT / cck-8)
- Type: cell-based
- conditionDescription: Homo sapiens, read-out: Half-Inhibitory Concentration IC50 K562
- Description: Tumor cell line A375: human melanoma cell; H460: lung adenocarcinoma cell; Hela: human cervical cancer cell; HepG2: human liver cancer cell; and SKOV-3: human ovarian cancer cell, were all purchased from ATCC and cultured to logarithmic phase according to the cultivation protocol recommended by ATCC. The cells in the logarithmic phase were plated onto a 96-well plate at 2000-3000 cells/well; in the case of adherent cells, the cells should be adherent to the wall. […]
propertyMeasured: IC50 (nM)
State just the number; it will be interpreted in nM.

Data request: Name the recorded IC50 of the molecule listed here: COc1ccc(N(C)c2nc(C)nc3ccccc23)cc1OCCCC(=O)NO
Data returned: 63

----------
- systemUnderTest: HDAC1 (Homo sapiens)
- Construct: purchased BPS Bioscience
- assayName: HDAC inhibitory activity, fluorescence-coupled acetylated peptide substrate assay (Lys-Ac-AMC)
- Assay type: biochemical
- conditionDescription: Table 3
propertyMeasured: IC50 (nM)

The cases that follow already have their IC50 on record.
| chemSmiles | unitsLabel | IC50 |
| --- | --- | --- |
| CN(c1ccc(OCCCCCC(=O)NO)cc1)c1ncnc2ccccc12 | nM | 176 |
| Cc1nc(N(C)c2ccc(OCC(=O)NO)cc2)c2ccccc2n1 | nM | 172 |
| Cc1nc(N(C)c2ccc(Oc3ccc(C(=O)NO)cc3)cc2)c2ccccc2n1 | nM | 552 |
| Cc1nc(N(C)c2ccc(Oc3ccc(C(=O)NO)cn3)cc2)c2ccccc2n1 | nM | 638 |
| CN(c1ccc(OCCCC(=O)NO)cc1)c1ncnc2ccccc12 | nM | 76 |

A: Cc1nc(N(C)c2ccc(OCCCCC(=O)NO)cc2)c2ccccc2n1
B: CN(c1ccc(OCCCCC(=O)NO)cc1)c1ncnc2ccccc12
Data request: Identify the entry with the larger IC50. Options: A and B Refer to your chosen item by its label in the answer.
Data returned: A
(A: 451 nM, B: 203 nM)

----------
- systemUnderTest: HDAC6 (Homo sapiens)
- Sequence (Q9UBN7 whole entry): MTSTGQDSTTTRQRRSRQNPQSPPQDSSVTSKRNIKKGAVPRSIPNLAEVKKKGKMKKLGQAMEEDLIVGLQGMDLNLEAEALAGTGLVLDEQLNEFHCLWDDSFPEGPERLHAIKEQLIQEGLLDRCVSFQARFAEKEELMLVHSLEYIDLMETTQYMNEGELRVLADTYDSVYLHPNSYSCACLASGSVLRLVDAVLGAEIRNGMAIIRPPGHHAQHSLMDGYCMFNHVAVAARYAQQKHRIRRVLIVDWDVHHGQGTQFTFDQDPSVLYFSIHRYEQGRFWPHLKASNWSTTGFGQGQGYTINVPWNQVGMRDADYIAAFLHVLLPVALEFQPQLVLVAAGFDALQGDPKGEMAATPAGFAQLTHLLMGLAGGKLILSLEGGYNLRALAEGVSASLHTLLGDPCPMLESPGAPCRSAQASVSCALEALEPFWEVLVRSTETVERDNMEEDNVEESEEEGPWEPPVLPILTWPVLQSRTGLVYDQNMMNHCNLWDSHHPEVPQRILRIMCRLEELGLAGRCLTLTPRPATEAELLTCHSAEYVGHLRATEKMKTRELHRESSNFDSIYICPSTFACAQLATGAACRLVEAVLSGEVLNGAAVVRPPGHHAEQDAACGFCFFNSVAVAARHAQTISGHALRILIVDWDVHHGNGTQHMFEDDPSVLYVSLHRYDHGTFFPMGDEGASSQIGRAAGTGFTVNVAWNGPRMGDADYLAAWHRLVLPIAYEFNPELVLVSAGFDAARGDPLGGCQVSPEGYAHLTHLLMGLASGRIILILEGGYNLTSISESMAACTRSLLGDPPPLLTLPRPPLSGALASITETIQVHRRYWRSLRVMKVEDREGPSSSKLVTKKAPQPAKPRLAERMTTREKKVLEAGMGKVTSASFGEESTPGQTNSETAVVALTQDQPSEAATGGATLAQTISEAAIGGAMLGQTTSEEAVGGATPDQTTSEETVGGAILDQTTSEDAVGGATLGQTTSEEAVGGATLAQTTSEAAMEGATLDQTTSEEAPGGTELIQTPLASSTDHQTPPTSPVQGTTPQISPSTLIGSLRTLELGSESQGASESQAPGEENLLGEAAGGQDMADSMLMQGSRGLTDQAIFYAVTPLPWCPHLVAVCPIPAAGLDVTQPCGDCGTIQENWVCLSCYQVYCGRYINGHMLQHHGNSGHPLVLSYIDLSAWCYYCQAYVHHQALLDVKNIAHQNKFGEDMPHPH
- assayName: HDAC inhibitory activity, fluorescence-coupled acetylated peptide substrate assay
- Type: biochemical
- conditionDescription: Table 4, Class IIb
propertyMeasured: IC50 (nM)
State just the number; it will be interpreted in nM.

Data request: Name the recorded IC50 of the compound listed here: COc1ccc(N(C)c2nc(C)nc3ccccc23)cc1OCCCC(=O)NO [III-2]
Data returned: 17

----------
- systemUnderTest: HDAC8 (Homo sapiens, UniProt Q9BY41)
- assayName: HDAC inhibitory activity, fluorescence-coupled acetylated peptide substrate assay
- conditionDescription: read-out: IC50 HDAC8; Table 4, Class I
propertyMeasured: pIC50
Lab note: report pIC50 as minus log10 of the concentration in molar units, number only.

Data request: Name the recorded pIC50 of the molecule listed here: COc1ccc(N(C)c2nc(C)nc3ccccc23)cc1OCCCC(=O)NO
Data returned: 5.47

----------
Documented pIC50 across a set of molecules
- systemUnderTest: UniProt Q9UBN7
- assayName: HDAC inhibitory activity, fluorescence-coupled acetylated peptide substrate assay
- Assay type: biochemical
- conditionDescription: Table 2
pIC50: −log10 of the molar value.

The cases that follow already have their pIC50 on record.
| chemSmiles | systemUnderTest | pIC50 |
| --- | --- | --- |
| CN(c1ccc(OCCCCCC(=O)NO)cc1)c1ncnc2ccccc12 | UniProt Q9UBN7 | 7.00 to 8.00 |
| CCCN(c1ccc(OC)c(OCCCC(=O)NO)c1)c1nc(C)nc2ccccc12 | UniProt Q9UBN7 | < 6.00 |
| Cc1nc(N(C)c2ccc(OCC(=O)NO)cc2)c2ccccc2n1 | UniProt Q9UBN7 | > 8.00 |

Data request: Under UniProt Q9UBN7, report pIC50 for Cc1nc(N(C)c2ccc(OCc3ccc(C(=O)NO)cc3)cc2)c2ccccc2n1
Data returned: > 8.00

Data request: Under UniProt Q9UBN7, report pIC50 for CN(c1ccc(OCc2ccc(C(=O)NO)cc2)cc1)c1ncnc2ccccc12
Data returned: > 8.00

Data request: Under UniProt Q9UBN7, report pIC50 for Cc1nc(N(C)c2cccc(OCCCC(=O)NO)c2)c2ccccc2n1
Data returned: 6.00 to 7.00

Data request: Under UniProt Q9UBN7, report pIC50 for COc1ccc(N(C)c2nc(C)nc3ccccc23)cc1OCCCCCC(=O)NO
Data returned: 7.00 to 8.00

Data request: Under UniProt Q9UBN7, report pIC50 for COc1ccc(N(C)c2nc(C)nc3ccccc23)cc1OCCCC(=O)NO
Data returned: 7.00 to 8.00
